EXPERIMENTAL TARGET: T1, human BCMA on the cell membrane surface (H929 and RPMI8226 cells) (human, UniProt Q02223 1-184)
T1 construct: whole, on cells; also called BCMA antigen on the cell membrane surface; BCMA-expressing cell line H929
T1 sequence (looked up): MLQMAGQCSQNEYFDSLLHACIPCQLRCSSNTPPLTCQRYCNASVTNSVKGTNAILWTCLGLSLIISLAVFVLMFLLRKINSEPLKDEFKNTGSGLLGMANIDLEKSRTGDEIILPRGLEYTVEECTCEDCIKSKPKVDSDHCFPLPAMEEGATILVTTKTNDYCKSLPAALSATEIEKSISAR
ASSAY METHOD TEXT: flow cytometry on RPMI8226 cells, EC50 ratio
REPORTED ENDPOINT: Fold increase relative to J6 (fold)
// note: answer is a bare numeric in fold

Example binders with recorded Fold increase relative to J6:
Reported Fold increase relative to J6 for B10.4 scFv-Fc (Fc fusion, also called mutant B10.4; not shown: Fc (scFv-Fc)) scFv: QVQLQQSGAEVKKPGSSVKVSCKASGGTFSKSAIMWVRQAPGQGLEWMGGVIPIFGTANYAQKFQGRVTITADESTSTAYMELSSLRSEDTAVYYCARGWYLDLWGRGTLVTVSSASTGGSSRSSSSGGGGSGGGGLPVLTQPPSASGTPGQRVTISCSGSSNNIGGYSVNWYQQFPGTAPKLLIYRNNQRPSGVPDRFSGSKSGASFSLAISGLQFEDEADYYCARWDDSVIGWVLGTGTQLTVL : what is it?
79.9

Reported Fold increase relative to J6 for B10.9 scFv-Fc (Fc fusion, also called mutant B10.9; not shown: Fc (scFv-Fc)) scFv: QVQLQQSGAEVKKPGSSVKVSCKASGGTFSKSAIQWVRQAPGQGLEWMGGVIPIFGTANYAQKFQGRVTITADESTSTAYMELSSLRSEDTAVYYCARGWYLDLWGRGTLVTVSSASTGGSSRSSSSGGGGSGGGGLPVLTQPPSASGTPGQRVTISCSGSSNNIGGYSVNWYQQFPGTAPKLLIYRNNQRPSGVPDRFSGSKSGASASLAISGLQSEDEADYYCAAWDDSEIGWLFGTGTQLTVL : what is it?
60.7

Reported Fold increase relative to J6 for B10.5 scFv-Fc (Fc fusion, also called mutant B10.5; not shown: Fc (scFv-Fc)) scFv: QVQLQQSGAEVKKPGSSVKVSCKASGGTFSKSAIHWVRQAPGQGLEWMGGVIPIFGTANYAQKFQGRVTITADESTSTAYMELSSLRSEDTAVYYCARGWYLDLWGRGTLVTVSSASTGGSSRSSSSGGGGSGGGGLPVLTQPPSASGTPGQRVTISCSGSSSNIGGYSVNWYQQFPGTAPKLLIYRNNQRPSGVPDRFSGSKSGASASLAISGLQSEDVADYYCAAWDDSLIGYVFGTGTQLTVL : what is it?
67.5

Further cases:
Reported Fold increase relative to J6 for B10.3 scFv-Fc (Fc fusion, also called mutant B10.3; not shown: Fc (scFv-Fc)) scFv: QVQLQQSGAEVKKPGSSVKVSCKASGGTFSKSAIQWVRQAPGQGLEWMGGVIPIFGTANYAQKFQGRVTITADESTSTAYMELSSLRSEDTAVYYCARGWYLDLWGRGTLVTVSSASTGGSSRSSSSGGGGSGGGGLPVLTQPPSASGTPGQRVTISCSGSSNNIGGYSVNWYQQFPGTAPKLLIYRNNQRPSGVPDRFSGSKSGASASLAISGLQSEDEADYYCAAWDDSVIGWLFGTGTQLTVL : what is it?
97.1
